Target System: human TLR7 (Homo sapiens, UniProt Q9NYK1)
Sequence (Q9NYK1 27-1049): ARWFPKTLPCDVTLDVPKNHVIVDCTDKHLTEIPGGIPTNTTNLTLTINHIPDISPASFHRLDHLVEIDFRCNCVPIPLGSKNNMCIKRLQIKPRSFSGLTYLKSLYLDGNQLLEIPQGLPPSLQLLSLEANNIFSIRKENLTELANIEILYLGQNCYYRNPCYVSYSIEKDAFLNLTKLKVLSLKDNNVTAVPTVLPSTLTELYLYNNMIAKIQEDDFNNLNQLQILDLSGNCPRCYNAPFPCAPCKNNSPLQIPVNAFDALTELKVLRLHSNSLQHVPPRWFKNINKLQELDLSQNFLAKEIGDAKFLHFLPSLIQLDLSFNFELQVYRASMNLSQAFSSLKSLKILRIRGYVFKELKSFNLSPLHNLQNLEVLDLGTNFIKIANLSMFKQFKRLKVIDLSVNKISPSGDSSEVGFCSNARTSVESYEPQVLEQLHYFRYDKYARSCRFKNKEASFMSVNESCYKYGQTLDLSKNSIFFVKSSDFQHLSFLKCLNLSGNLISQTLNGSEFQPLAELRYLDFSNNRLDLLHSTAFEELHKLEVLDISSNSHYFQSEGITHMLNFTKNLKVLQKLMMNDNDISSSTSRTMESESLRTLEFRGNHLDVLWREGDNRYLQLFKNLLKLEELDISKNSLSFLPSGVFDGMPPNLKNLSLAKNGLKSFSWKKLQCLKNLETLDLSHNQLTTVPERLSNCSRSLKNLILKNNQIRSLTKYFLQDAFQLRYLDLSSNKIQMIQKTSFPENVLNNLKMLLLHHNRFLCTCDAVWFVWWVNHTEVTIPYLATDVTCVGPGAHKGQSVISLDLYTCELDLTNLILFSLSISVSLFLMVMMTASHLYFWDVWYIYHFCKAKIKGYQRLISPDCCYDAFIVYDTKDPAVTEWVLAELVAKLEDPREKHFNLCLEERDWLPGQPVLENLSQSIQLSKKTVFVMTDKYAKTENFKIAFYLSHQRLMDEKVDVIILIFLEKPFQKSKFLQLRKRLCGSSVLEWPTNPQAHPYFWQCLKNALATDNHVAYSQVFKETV
Test: TLR7 reporter cell assay (HEK293 cells stably expressing human TLR7 with NF-κB-driven SEAP reporter)
Protocol Conditions: fit of SEAP dose response; ymax from 28.5 μM resiquimod; 15-24 hours
Measured Parameter: EC50
# output: numeric value plus its unit

// known answers, use as guide
[[record]]
molecule = "C#CCn1c(=O)n([C@@H]2O[C@H]([C@@H](O)CSC)C[C@H]2O)c2nc(N)[nH]c(=O)c21 [Compound 45]"
reported = "185 µM"

[[record]]
molecule = "CCCn1c(=O)n([C@@H]2O[C@H]([C@@H](O)C(F)(F)F)C[C@H]2O)c2nc(N)[nH]c(=O)c21 [Compound 25]"
reported = "324 µM"


Now examine the next entry.
Lab note: Nc1nc2c(c(=O)[nH]1)n(CC1CC1)c(=O)n2[C@@H]1O[C@H]([C@@H](O)C(F)(F)F)C[C@H]1O [Compound 29] gave EC50 of 201 µM
